self-cleavage kobs at 640 uM GlcN6P values, listed per item
B1: glmS ribozyme (parent)
chain: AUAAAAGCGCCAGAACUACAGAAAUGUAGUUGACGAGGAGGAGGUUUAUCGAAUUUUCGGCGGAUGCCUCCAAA

variants of: B1; assay: self-cleavage kobs at 640 uM GlcN6P; higher = faster cleavage; RNA array; conditions: with glucosamine-6-phosphate
Variants at the floor of the assay were thinned out.
The answer is to be given in s⁻¹; state only the numeric part.

Worked cases, answers included:
U46G C67U C71A | 6.72e-05
A12U C16A U56A | 0.000636
C16U U31A | 0.00468

Q: Which measured self-cleavage kobs at 640 uM GlcN6P value corresponds to G29A U46G ?
Ans: 0.000243

Q: Now try U49G C50G G63C U69C .
Ans: 0.00018

Q: Another variant to check: G41A C70U
Ans: 0.0179

Q: What do you have for U47C U55G ?
Ans: 0.0011

Q: What would you report for U47G A64G ?
Ans: 0.00203

Q: Thanks! And U54C G66U ?
Ans: 0.000359
